assay-protocol: 2,2-diphenyl-1-picrylhydrazyl (DPPH) assay
condition-parameters: DPPH in ethanol, 515 nm, 25° C.
Protocol: The unpaired electron results in a strong absorption band at 515 nm, and the solution has a dark-violet colour. […] The absorbance is measured in a photometer. The anti-free-radical property of the substance to be tested is determined by measuring the concentration at which 50% of the 2,2-diphenyl-1-picrylhydrazyl employed has reacted with the free-radical scavenger. […] The absorbance is measured in a photometer. […] The absorbance is measured in each case at 515 nm, 25° C. and 1 cm. […]
reported-endpoint: Stability TEC50 (reaction time needed to achieve EC50) (min)

Consider the following illustrative entries.
compound: CCCCC(CC)COC(=O)C(Cc1cc(OC)c(O)c(OC)c1)C(=O)OCC(CC)CCCC (stereo not drawn) [Hydroxy dimethoxybenzyl malonate]
measurement-unit: min
observed-measurement: 600

compound: CC(=O)Oc1c(C)c(C)c2c(c1C)CCC(C)(CCC[C@H](C)CCC[C@H](C)CCCC(C)C)O2 (stereo partly drawn) [alpha-Tocopheryl acetate]
measurement-unit: min
observed-measurement: 600

compound: CCCCC(CC)COC(=O)C(=Cc1cc(OC)c(O)c(OC)c1)C(=O)OCC(CC)CCCC (stereo not drawn) [Hydroxy dimethoxybenzylidene malonate]
measurement-unit: min
observed-measurement: 1200

a: O=C1OC(C(O)CO)C(OP(=O)(O)O)=C1O (stereo not drawn) [Ascorbyl (2-O) phosphate]
b: Cc1c(C)c2c(c(C)c1O)CC[C@@](C)(CCC[C@H](C)CCC[C@H](C)CCCC(C)C)O2 [alpha-Tocopherol]
Query block: Smaller Stability TEC50 (reaction time needed to achieve EC50) value, a vs b ? Identify your pick by its label.
Result block: b
(b: 30 min, a: 1200 min)
